Each entry below carries its recorded pKd.
Target: alpha-bungarotoxin (α-Bgt) (Bungarus multicinctus (Taiwan banded …, UniProt P60615 22-95))
Sequence (P60615 22-95): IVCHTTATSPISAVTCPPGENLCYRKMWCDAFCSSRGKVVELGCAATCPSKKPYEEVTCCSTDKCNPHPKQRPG
Test: fluorescence quenching titration; 10 mM Tris-HCl pH 7.5, 1 mM EDTA, 100 mM NaCl; temperature not stated; […]
Conditions: protein: native; tags: none; label: 5'-FAM
In plain terms, pKd is the concentration in mol/L turned into minus its base-10 logarithm.

Q: Recorded pKd of ATCATGTCTTTTCGGGATGGGCAAGAAGGGAAATAATGC (ssDNA) [FAM-bgt3] , please.
A: 6.85

Q: Cool, now GCGAGGTGTTCGAGAGTTAGGGCGACATGACCAAACGTT (ssDNA) [FAM-bgt1]
A: 5.66

Q: # repeat for AGAAACGTAGCGGTAACTGCTAGAATGCGCCGAGAGAGCG (ssDNA) [FAM-bgt4]
A: 6.55

Q: Same again, this time with AGGGCACAGAGAAGAAGTCGTGGATTTGAATGGTTTTGGT (ssDNA) [FAM-bgt2]
A: 6.34
